All values here come from paper PMC12530853.

Test: Cytotoxicity, CCK-8 assay
Assay type: cell-based
Conditions: human, Caco-2
metric: viability at 24 h, 64 μg mL^−1

In: GET /values?readout=viability at 24 h, 64 μg mL^−1&item= Oc1ccc(O)c(C=Nc2ncn[nH]2)c1 [3c]
Out: > 95%

----------
Parameter MIC, tested on C. albicans ATCC 10231, listed per item.
Just the number please, in µg/mL, no unit attached.

Worked cases, answers included:
{"compound": "C[C@@H]1C/C=C/C=C/C=C/C=C/[C@H](O[C@@H]2O[C@H](C)[C@@H](O)[C@H](N)[C@@H]2O)C[C@@H]2O[C@](O)(C[C@@H](O)C[C@H]3O[C@@H]3/C=C/C(=O)O1)C[C@H](O)[C@H]2C(=O)O [Natamycin, reference compound]", "value": 8}
{"compound": "Oc1ccc(Cl)cc1C=Nc1ncn[nH]1", "value": 128}
{"compound": "C(=Nc1ncn[nH]1)c1ccc(-c2ccccc2)cc1", "value": 128}
{"compound": "Cc1ccc(C=Nc2nc[nH]n2)c(O)c1", "value": 64}
{"compound": "O=[N+]([O-])c1ccc(C=Nc2nc[nH]n2)c(O)c1", "value": 64}

In: Record CS(=O)(=O)c1ccc(C=Nc2ncn[nH]2)cc1 : what is its MIC with C. albicans ATCC 10231?
Out: 128

In: Lab request: please report MIC under test system C. albicans ATCC 10231 for O=[N+]([O-])c1ccc(C=Nc2ncn[nH]2)cc1
Out: 128

----------
Parameter MIC, tested on C. albicans ATCC 10231, listed per item.

Before answering, review these 2 worked examples.
{"structureNotation": "COc1ccc(C=Nc2ncn[nH]2)cc1", "systemName": "C. albicans ATCC 10231", "MIC": "> 256 µg/mL"}
{"structureNotation": "O=C(O)c1ccc(C=Nc2ncn[nH]2)cc1", "systemName": "C. albicans ATCC 10231", "MIC": "> 256 µg/mL"}

Let us examine a further case.
In: Which measured MIC belongs to Oc1ccc(O)c(C=Nc2ncn[nH]2)c1 , tested on C. albicans ATCC 10231?
Out: 16 µg/mL

----------
Quick record: MIC, C. albicans ATCC 10231.

Below, each entry is followed by its recorded MIC result.
{"structureNotation": "Oc1ccc(C=Nc2ncn[nH]2)cc1", "value": "> 256 µg/mL"}
{"structureNotation": "Clc1ccc(C=Nc2ncn[nH]2)cc1", "value": "> 256 µg/mL"}

In: Look up MIC with C. albicans ATCC 10231 for this compound: C(=Nc1ncn[nH]1)c1ccncc1
Out: > 256 µg/mL
